- Test system: A549/ATCC NSCLC
- Test protocol: NCI-60 one-dose screen, 48 h (100 = growth as untreated, 0 = no growth, -100 = all killed)
- Measurement setup: 10 µM unless noted
About 83,000 compounds went through this panel and 20% of them were active in at least one assay; those are over-represented in the sample as a whole. Activity calls are given as the source filed them. The calls were made as follows: active = growth percent below 10; inactive = the rest.
Listed here: items and their measured growth.

Some compounds with recorded growth:
{"columns": ["Compound", "Target system", "growth"],
 "data": [
  ["CCCCC[C@H]1C/C=C2/C(=O)C=C[C@@H]2C/C=C\\CCCC(=O)O[C@@H](CCCCC)C/C=C2/C(=O)C=C[C@@H]2C/C=C\\CCCC(=O)O1", "A549/ATCC NSCLC", "-43.5% (active)"],
  ["Nc1c(C(=O)Nc2c(Cl)cccc2Cl)sc2nc3c(cc12)C(=O)CCC3", "A549/ATCC NSCLC", "38% (inactive)"],
  ["CCN(CC)CCCCCNc1cc(OC(=O)c2ccccc2)cc2cccnc12", "A549/ATCC NSCLC", "122% (inactive)"]
]}

Request: // fetch growth given entry `COc1cc2[nH]c(C(=O)c3cc(OC)c(OC)c(OC)c3)c(N)c2cc1C#CCO`
Result: 33% (inactive)

Request: Give me measured growth, please, for this compound: `C(=C\c1c[nH]c2ccccc12)/c1ccc2ccccc2n1`
Result: 63.3% (inactive)

Request: Please list growth recorded for the compound `C=C(C)[C@@H]1CC[C@]2(c3nnc(-c4ccncc4)o3)CC[C@]3(C)[C@H](CC[C@@H]4[C@@]5(C)CCC(=O)NC(C)(C)[C@@H]5CC[C@]43C)[C@@H]12`
Result: 92.8% (inactive)

Request: Give the reported growth for this compound. `CCc1nnc(NC(=O)c2ccoc2COc2ccccc2)s1`
Result: 62.1% (inactive)

Request: Give the measured growth for `C/C(Cc1ccc(Cl)cc1)=C(/c1ccc(Cl)cc1)c1ccc(OCCN2CCCC2)cc1`
Result: 69.8% (inactive)

Request: For the compound `O=C(Nc1ccc(/C=C2\SC(=O)N(Cc3ccc(OC(F)(F)F)cc3)C2=O)cc1)c1ccc(Cl)c([N+](=O)[O-])c1` , report growth.
Result: 85% (inactive)

Request: Indicate its recorded growth; the compound in question is `Cn1c2c(Cl)c(Cl)ccc2c2c(C#N)c[nH]c(=O)c21`
Result: 93.3% (inactive)

Request: Give growth for the following compound: `c1cnc2[nH]cc(-c3csc(-c4cn(CCCN5CCCCC5)c5ccccc45)n3)c2c1`
Result: 58.3% (inactive)

----------
Below: a set of entries, each annotated with reported growth.
- System: NCI-H322M lung
- Test protocol: NCI-60 one-dose screen, 48 h (100 = growth as untreated, 0 = no growth, -100 = all killed)
- Measurement setup: 10 µM unless noted
Compounds without any hit were thinned out: in the full panel of roughly 83,000, 20% have a hit.
Note: unit % is implicit; provide only the numeric part.

{"columns": ["Compound", "Readout unit", "Value reported"],
 "data": [
  ["Cc1ccsc1-c1ccc2c(c1)COC2(CCCN(C)C)c1ccc(F)cc1 (stereo unspecified)", "%", 68.5],
  ["Cc1ccc(N(CC(=O)Nc2ccc(S(=O)(=O)N3CCC(N4CCCC4)CC3)cc2)S(=O)(=O)c2ccc(Cl)cc2)cc1", "%", 22.5],
  ["O=c1[nH]ncc(Br)c1Br", "%", 94.7],
  ["CC1(c2ccccc2)OC1C(=O)O (stereo unspecified)", "%", 97.9],
  ["CC(CNc1nc(Nc2ccc(Cl)c(Cl)c2)nc(C(Cl)(Cl)Cl)n1)N(C)C (stereo unspecified)", "%", 27.6],
  ["CCCCC[C@H]1C/C=C2/C(=O)C=C[C@@H]2C/C=C\\CCCC(=O)O[C@@H](CCCCC)C/C=C2/C(=O)C=C[C@@H]2C/C=C\\CCCC(=O)O1", "%", -85.7]
]}

Request: Provide growth, recorded with NCI-H322M lung, of `Cn1c(=O)c2c(nc(N3CCCC3)n2C)n(C)c1=O`
Result: 105

Request: System NCI-H322M lung. Read-out growth. Item `COc1ccc(C2(Cl)c3ccccc3N(c3ccccc3)c3ccccc32)cc1` . Report value.
Result: 9.96

Request: Please indicate recorded growth of `COc1ccc2c(c1)C/C(=C\c1cc(-c3cc(OC)c(OC)c(OC)c3)n[nH]1)C2=O` measured with NCI-H322M lung.
Result: 93.9

Request: // fetch growth for c1ccc(C2Cc3ccccc3C2=NC2CCCCC2)cc1 (stereo unspecified) ; system: NCI-H322M lung
Result: 102

Request: Give growth only, for `COC(=O)CCCCCn1c2ccccc2c2c3c(c4c5ccccc5[nH]c4c21)C(=O)N(O)C3=O` , using NCI-H322M lung data.
Result: 62.4
